// reported IC50 per item
Tested on: Entamoeba histolytica
Experiment: Antiamoebic activity against Entamoeba histolytica HM1:IMSS after 72 hrs by microplate method
Assay type: functional, organism-based
Details: HM-1:IMSS
ASSAY_METRIC: IC50

| STRUCTURE_STRING | ASSAY_METRIC | RESULT |
| --- | --- | --- |
| CC1CCN(C(=S)N/N=C/c2ccco2)CC1 | IC50 | 8.02 µM |
| S=C(N/N=C/c1ccco1)N1CCCCCC1 | IC50 | 12.1 µM |
| CN(C(=S)N/N=C/c1ccco1)C1CCCCC1 | IC50 | 9.07 µM |
| S=C(N/N=C/c1ccco1)NC1CCCCC1 | IC50 | 10.1 µM |
